I'd be grateful if you could share measured melting point for these entries.

Q: Return value of melting point for input O=S(=O)(Cc1ccc(O)cc1)Nc1ncc(-c2ccc(O)cc2)nc1Cc1ccccc1 , no commentary.
A: 194.5 to 196.5 °C

Q: Return value of melting point for input O=S(=O)(Cc1ccccc1)Nc1ncc(-c2ccccc2)nc1Cc1ccccc1 , no commentary.
A: 207 to 208.5 °C

Q: Return value of melting point for input CC(=O)Oc1ccc(-c2cnc(N(S(=O)(=O)c3ccc([N+](=O)[O-])cc3)S(=O)(=O)c3ccc([N+](=O)[O-])cc3)c(Cc3ccccc3)n2)cc1 , no commentary.
A: 227 to 229.5 °C (dec.)

Q: Return value of melting point for input CC(=O)Oc1ccc(-c2cnc(NC(=O)Cc3ccccc3)c(Cc3ccccc3)n2)cc1 , no commentary.
A: 228 to 231 °C

Q: Return value of melting point for input Cc1ccc(S(=O)(=O)Nc2ncc(-c3ccc(O)cc3)nc2Cc2ccccc2)cc1 , no commentary.
A: 181 to 182.5 °C

Q: Return value of melting point for input O=C(Cc1ccccc1)Nc1ncc(-c2ccc(O)cc2)nc1Cc1ccccc1 , no commentary.
A: 259 to 261 °C

Q: Return value of melting point for input COc1ccc(-c2cnc(N(S(=O)(=O)Cc3ccccc3)S(=O)(=O)Cc3ccccc3)c(Cc3ccccc3)n2)cc1 , no commentary.
A: 78 to 80 °C

Q: Return value of melting point for input O=[N+]([O-])c1ccc(S(=O)(=O)Nc2ncc(-c3ccc(O)cc3)nc2Cc2ccccc2)cc1 , no commentary.
A: 176 to 177.5 °C (dec.)

Q: Return value of melting point for input CC(=O)Oc1ccc(-c2cnc(NC(=S)Cc3ccccc3)c(Cc3ccccc3)n2)cc1 , no commentary.
A: 143 to 145 °C

Q: Return value of melting point for input CC(=O)Oc1ccc(-c2cnc(NS(=O)(=O)Cc3ccccc3)c(Cc3ccccc3)n2)cc1 , no commentary.
A: 240 to 241 °C

Q: Return value of melting point for input CC(=O)Oc1ccc(-c2cnc(N)c(Cc3ccccc3)n2)cc1 , no commentary.
A: 183.5 to 185.5 °C

Q: Return value of melting point for input Oc1ccc(CC(=S)Nc2ncc(-c3ccc(O)cc3)nc2Cc2ccccc2)cc1 , no commentary.
A: 101 to 103 °C

Q: Return value of melting point for input CC(=O)Oc1ccc(-c2cnc(N(S(=O)(=O)Cc3ccc(I)cc3)S(=O)(=O)Cc3ccc(I)cc3)c(Cc3ccccc3)n2)cc1 , no commentary.
A: 166 to 167 °C

Q: Return value of melting point for input O=S(=O)(Cc1ccccc1)N(c1ncc(-c2ccccc2)nc1Cc1ccccc1)S(=O)(=O)Cc1ccccc1 , no commentary.
A: 71.5 to 74.5 °C

Q: Return value of melting point for input COc1ccc(-c2cnc(NC(=S)Cc3ccccc3)c(Cc3ccccc3)n2)cc1 , no commentary.
A: 45 to 47 °C
